biological target: FL-AR^WT (Homo sapiens, UniProt P10275); construct: toward full-length (FL)-AR^WT and FL-AR^V684A; assay: Luciferase reporter assay in PC3 cells, wild type AR; conditions: read-out: IC50 toward FL-AR^WT
observedProperty: pIC50
Schema: pIC50 number; meaning minus log10 of the concentration expressed in molar units.

Lab request: please report pIC50 under test system FL-AR^WT (Homo sapiens, UniProt P10275) for CC(=O)Cc1nsc(NC(=O)c2cc(-c3cccc(C(F)(F)F)c3)oc2C)n1 [Compound A-1]
5.74

* * *

Give measured IC50 for each item. Keep answers brief.
Biological target: AR (Homo sapiens, UniProt P10275, T878A)
Construct: into the androgen-dependent PCa cells (LNCaP); endogenous in cells; host or cells: LNCaP-ARR2PB-eGFP
Sequence (P10275 1-920 T878A): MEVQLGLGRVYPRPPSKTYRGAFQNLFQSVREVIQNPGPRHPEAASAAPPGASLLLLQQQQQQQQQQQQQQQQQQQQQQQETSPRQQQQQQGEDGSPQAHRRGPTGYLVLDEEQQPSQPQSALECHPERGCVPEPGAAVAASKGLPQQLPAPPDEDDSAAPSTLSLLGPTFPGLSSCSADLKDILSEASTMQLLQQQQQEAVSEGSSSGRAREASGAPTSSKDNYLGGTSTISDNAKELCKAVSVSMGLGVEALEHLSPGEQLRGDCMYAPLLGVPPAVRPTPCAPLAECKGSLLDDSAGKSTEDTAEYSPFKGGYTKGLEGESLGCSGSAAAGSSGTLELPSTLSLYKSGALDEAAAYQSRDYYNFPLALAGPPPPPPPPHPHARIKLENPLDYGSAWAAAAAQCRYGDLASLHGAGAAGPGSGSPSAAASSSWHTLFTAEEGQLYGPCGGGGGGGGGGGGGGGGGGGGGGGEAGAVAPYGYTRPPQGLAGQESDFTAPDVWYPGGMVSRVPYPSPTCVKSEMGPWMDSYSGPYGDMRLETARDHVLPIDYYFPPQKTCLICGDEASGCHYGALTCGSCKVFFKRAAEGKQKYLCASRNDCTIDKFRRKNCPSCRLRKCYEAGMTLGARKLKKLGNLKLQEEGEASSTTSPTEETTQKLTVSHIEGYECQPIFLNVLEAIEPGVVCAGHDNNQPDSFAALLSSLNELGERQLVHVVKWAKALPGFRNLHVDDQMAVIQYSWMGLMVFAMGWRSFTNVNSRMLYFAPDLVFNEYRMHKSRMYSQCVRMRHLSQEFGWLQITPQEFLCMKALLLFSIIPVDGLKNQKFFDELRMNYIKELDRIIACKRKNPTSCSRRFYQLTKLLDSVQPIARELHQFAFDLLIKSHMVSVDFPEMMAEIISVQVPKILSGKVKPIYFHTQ
Test: AR transcriptional activity, LNCaP-ARR2PB-eGFP reporter cells
Assay type: cell-based
Conditions: read-out: IC50 AR transcriptional activities
Field: numeric (µM). Do not append units.

Find the recorded IC50 belonging to COc1cccc(-c2cc(C(=O)Nc3nc(CC(C)N4CCCC4)ns3)c(C)s2)c1 (stereo not drawn) and report it.
19.4

I would be grateful if you could share the reported IC50 for CC(Cc1nsc(NC(=O)c2coc(-c3cccc(OC(F)F)c3)c2)n1)N1CCN(C)CC1 (stereo not drawn) .
59.3

Could you tell me which IC50 is on file for `CC(=O)Cc1nsc(NC(=O)c2cc(-c3cccc(OC(F)F)c3)c(C)o2)n1` ?
12.6

Recorded IC50 for Cc1sc(-c2cccc(OC(F)(F)F)c2)cc1C(=O)Nc1nc(CC(C)N2CCOCC2)ns1 (stereo not drawn) , please?
6.17

Please report the recorded IC50 for `CC(=O)Cc1nsc(NC(=O)c2cc(-c3cccc(C(F)(F)F)c3)oc2C(F)(F)F)n1` .
1.06

Name the recorded IC50 for `O=C(Nc1nc(CCl)ns1)c1cc(-c2cccc(C(F)(F)F)c2)co1` .
31.4

# query: IC50 of entry Cc1oc(-c2cccc(C#N)c2)cc1C(=O)Nc1nc(CC(C)N2CCOCC2)ns1 (stereo not drawn)
0.76

Look up IC50 for this compound: `Cc1oc(C(=O)Nc2nc(CN3CCOCC3)ns2)cc1-c1cccc(OC(F)(F)F)c1`
15.6

# IC50 lookup, item CC(Cc1nsc(NC(=O)c2csc(-c3cccc(C#N)c3)c2)n1)N1CCCC1 (stereo not drawn)
13

What measured IC50 goes with CCN(CC)C(C)Cc1nsc(NC(=O)c2csc(-c3cccc(C(F)(F)F)c3)c2)n1 (stereo not drawn) ?
23.2

Data request, read-out IC50, for `CC(=O)Cc1nsc(NC(=O)c2coc(-c3cccc(C(F)(F)F)c3)c2)n1`
18.6

Query: IC50; subject: `CC(=O)Cc1nsc(NC(=O)c2cc(-c3cccc(C(=O)O)c3)oc2C)n1`
0.94

# query: IC50 of entry `Cc1oc(-c2cccc(OC(F)(F)F)c2)cc1C(=O)Nc1nc(CN2CCCC2)ns1`
0.04

I would be grateful if you could share the reported IC50 for `CC(=O)Cc1nsc(NC(=O)c2cc(-c3cccc(OC(F)F)c3)oc2C)n1` .
0.05

Quick check: IC50 of CNC(C)Cc1nsc(NC(=O)c2cc(-c3cccc(C(F)(F)F)c3)oc2C)n1 (stereo not drawn) ?
0.16

Give the measured IC50 of Cc1oc(-c2cccc(C(F)(F)F)c2)cc1C(=O)Nc1nc(CC(C)O)ns1 (stereo not drawn) .
0.39

State the recorded IC50 for this entry: `CN(C)Cc1nsc(NC(=O)c2coc(-c3cccc(C#N)c3)c2)n1`
18.6

For the compound Cc1oc(-c2cccc(C(F)(F)F)c2)cc1C(=O)Nc1nc(CC(C)N2CCCCC2)ns1 (stereo not drawn) , what IC50 is on record?
0.17

IC50 lookup needed for `O=C(Nc1nc(CN2CCCCC2)ns1)c1cc(-c2cccc(OC(F)F)c2)oc1C(F)(F)F` , thanks.
0.89

What does the data say about its IC50? Entry: `CC(=O)Cc1nsc(NC(=O)c2cc(-c3cccc(OC(F)F)c3)sc2C)n1`
49.3

Query: IC50; subject: `COc1cccc(-c2cc(C(=O)Nc3nc(CC(C)=O)ns3)cs2)c1`
13.6

Field request: IC50 | item: `CN1CCN(Cc2nsc(NC(=O)c3cc(-c4cccc(OC(F)F)c4)co3)n2)CC1`
39.2

What value of IC50 has been reported for the following compound? `COc1cccc(-c2cc(C(=O)Nc3nc(CC(C)=O)ns3)c(C)s2)c1`
43.7

# lookup: IC50 of CC(Cc1nsc(NC(=O)c2coc(-c3cccc(C(F)(F)F)c3)c2)n1)N(C)C (stereo not drawn)
11.8

So what does the record say about IC50 for CC(Cc1nsc(NC(=O)c2csc(-c3cccc(C(F)(F)F)c3)c2)n1)N(C)C (stereo not drawn) ?
43.8

Could you share which IC50 value was measured for CCN(CC)C(C)Cc1nsc(NC(=O)c2coc(-c3cccc(C(F)(F)F)c3)c2)n1 (stereo not drawn) ?
15

Would you kindly share the measured IC50 for `CC(=O)Cc1nsc(NC(=O)c2cc(-c3cccc(NC(C)=O)c3)oc2C)n1` ?
13.6

# get_value(readout='IC50', item= `CC(=O)Cc1nsc(NC(=O)c2cc(-c3cccc(O)c3)oc2C)n1` )
3.21

Report IC50 for `O=C(Nc1nc(CN2CCOCC2)ns1)c1coc(-c2cccc(OC(F)F)c2)c1` please.
23.5

Dear colleague, I am looking for the recorded IC50 of the following compound: `N#Cc1cccc(-c2coc(C(=O)Nc3nc(CN4CCCCC4)ns3)c2)c1`
19.8

Bench note: what IC50 did `CC(=O)Cc1nsc(NC(=O)c2cc(-c3cccc(F)c3)oc2C)n1` show?
1.16

Item under review: `COC(=O)c1cccc(-c2cc(C(=O)Nc3nc(CC(C)=O)ns3)c(C)o2)c1` . Reported IC50?
5.19

IC50 lookup needed for CC(Cc1nsc(NC(=O)c2cc(-c3cccc(C(F)(F)F)c3)co2)n1)N1CCCC1 (stereo not drawn) , thanks.
13.9
